- TEST DESCRIPTION: self-splicing fitness, log relative to wild type (ln ratio); higher = more splicing; Tetrahymena group I intron in knt gene, E. coli kanamycin selection, DiMSum; sequences stand for … in CUCUCU…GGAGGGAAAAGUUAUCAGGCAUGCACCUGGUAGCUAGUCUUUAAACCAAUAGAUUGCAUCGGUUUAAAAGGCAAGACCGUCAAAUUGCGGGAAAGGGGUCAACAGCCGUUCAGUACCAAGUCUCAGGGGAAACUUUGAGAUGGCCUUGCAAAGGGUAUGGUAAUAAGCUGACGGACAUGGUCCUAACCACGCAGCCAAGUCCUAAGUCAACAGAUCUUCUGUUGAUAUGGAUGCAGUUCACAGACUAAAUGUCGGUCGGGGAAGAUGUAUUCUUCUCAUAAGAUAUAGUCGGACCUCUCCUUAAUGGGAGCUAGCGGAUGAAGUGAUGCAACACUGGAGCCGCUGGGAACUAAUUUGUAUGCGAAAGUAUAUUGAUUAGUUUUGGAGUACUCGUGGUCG;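 note: selection with 25 µg/mL kanamycin versus none on LB agar overnight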
- MEASUREMENT SETUP: 30 °C
Known self-splicing fitness (ln) of a selection of sequences
Would you mind answering with just the numeric figure?

The following sequences have reported results that may help.
>>> quantitative_readout("UGUAAGCAAUAUUACGCGCU")
-0.925
>>> quantitative_readout("AGACAGCAAUAUUACGGUUC")
-3.34
>>> quantitative_readout("GAAAAGCAAUAUUACGAAUU")
-1.37
>>> quantitative_readout("GACGAGCAAUAUUACGGCGC")
-1.79
>>> quantitative_readout("UUUCAGCAAUAUUACGCUUU")
-2.69

Requested field: self-splicing fitness (ln). Item: GAGGAGCAAUAUUACGGAAC
-3.68

Suppose we examine the sequence CGACAGCAAUAUUACGGAUG ; what self-splicing fitness (ln) value has been reported?
-0.977

What does the record list as self-splicing fitness (ln) for AGCAAGCAAUAUUACGUAUU ?
-3.02

What value of measured self-splicing fitness (ln) is listed for UAACAGCAAUAUUACGCACC ?
-2.33

Please report the recorded self-splicing fitness (ln) for AUCGAGCAAUAUUACGCGUU .
-2.01

self-splicing fitness (ln) lookup needed for GAGCAGCAAUAUUACGCGGU , thanks.
-3.17

# get_value(readout='self-splicing fitness (ln)', item= CCUUAGCAAUAUUACGGGUG )
-1.5

I have this sequence here, AUUUAGCAAUAUUACGUUUC , and I need its recorded self-splicing fitness (ln).
-2.86

Endpoint output: self-splicing fitness (ln) of UAAAAGCAAUAUUACGAGGC . Value?
-2.69

Bench note: what self-splicing fitness (ln) did GCGCAGCAAUAUUACGUUAA show?
-1.45

Please report the recorded self-splicing fitness (ln) for CCGUAGCAAUAUUACGCGCU .
-3.4

* * *

- TEST DESCRIPTION: self-splicing fitness, log relative to wild type (ln ratio); higher = more splicing; Tetrahymena group I intron in knt gene, E. coli kanamycin selection, DiMSum; sequences stand for … in CUCUCU…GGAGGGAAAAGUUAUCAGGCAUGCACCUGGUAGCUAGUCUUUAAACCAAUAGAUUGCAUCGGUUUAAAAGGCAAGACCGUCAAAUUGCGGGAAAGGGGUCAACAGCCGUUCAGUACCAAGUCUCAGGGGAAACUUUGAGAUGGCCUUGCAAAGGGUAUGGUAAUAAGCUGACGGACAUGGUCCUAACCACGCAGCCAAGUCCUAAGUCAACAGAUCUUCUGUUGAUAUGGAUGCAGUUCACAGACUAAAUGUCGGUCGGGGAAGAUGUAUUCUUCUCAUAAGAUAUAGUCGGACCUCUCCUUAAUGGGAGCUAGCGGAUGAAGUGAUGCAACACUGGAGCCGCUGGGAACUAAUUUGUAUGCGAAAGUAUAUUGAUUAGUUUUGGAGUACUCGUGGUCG
- MEASUREMENT SETUP: 30 °C
ASSAY READOUT: self-splicing fitness (ln)

Reference set (4 entries):
>>> result("GUGCAGCAAUAUUACGGUUC")
-0.353
>>> result("UAUUAGCAAUAUUACGUCGG")
-1.21
>>> result("GAUCAGCAAUAUUACGCUGG")
-3.48
>>> result("UCAAAGCAAUAUUACGUAAA")
-1.73

Could you share which self-splicing fitness (ln) value was measured for GCCCAGCAAUAUUACGCUUC ?
-1.18

Could you share which self-splicing fitness (ln) value was measured for AUAAAGCAAUAUUACGUCGC ?
-2.83

Entry under review: CACAAGCAAUAUUACGCUCA . Reported self-splicing fitness (ln)?
-1.45
